Provide the reported ΔKdis (pH 6.0)/ΔKdis (pH 7.4) of each item.
# Subject Of Test: T1, VISTA-His ECD (Sino Biological 13482-H08H) (human, UniProt Q9H7M9 33-194)
# T1 construct: Bought protein; also called VISTA-ECD; not shown: His tag
# Experiment Summary: BLI (Octet K2), ratio of the pH 6.0 fold change to the pH 7.4 fold change
Form rule: numeric answer, no unit written next to it.

Assign ΔKdis (pH 6.0)/ΔKdis (pH 7.4) to the following record: Antibody No. 474.1 with VL Y31H, VH Y32H, VH Y52H (antibody, V domains shown) VH: QVQLQESGPGLVKPSETLSLTCTVSGGSISSHYWSWIRQPPGKGLEWIGYIHYSGSTNYNPSLKSRVTISVDTSKSQFSLKLSSVTAADTAVYYCARDIPAFAFDIWGQGTMVIVSS VL: EIVLTQSPATLSLSPGERATLSCRASQSVSHYLAWYQQKPGQAPRLLIYDAFNRATGIPARFSGSGSGTDFTLTISSLEPEDFAVYYCQQRINWPLTFGGGTKVEIK 2

Return ΔKdis (pH 6.0)/ΔKdis (pH 7.4) (reported value) for this binder: Antibody No. 474.1 with VL Y31H, VH Y32H, VH Y33H (antibody, V domains shown) VH: QVQLQESGPGLVKPSETLSLTCTVSGGSISSHHWSWIRQPPGKGLEWIGYIYYSGSTNYNPSLKSRVTISVDTSKSQFSLKLSSVTAADTAVYYCARDIPAFAFDIWGQGTMVIVSS VL: EIVLTQSPATLSLSPGERATLSCRASQSVSHYLAWYQQKPGQAPRLLIYDAFNRATGIPARFSGSGSGTDFTLTISSLEPEDFAVYYCQQRINWPLTFGGGTKVEIK 1.5

Answer with the recorded ΔKdis (pH 6.0)/ΔKdis (pH 7.4) of Antibody No. 474.1 with VH Y32H, VH Y52H (antibody, V domains shown) VH: QVQLQESGPGLVKPSETLSLTCTVSGGSISSHYWSWIRQPPGKGLEWIGYIHYSGSTNYNPSLKSRVTISVDTSKSQFSLKLSSVTAADTAVYYCARDIPAFAFDIWGQGTMVIVSS VL: EIVLTQSPATLSLSPGERATLSCRASQSVSYYLAWYQQKPGQAPRLLIYDAFNRATGIPARFSGSGSGTDFTLTISSLEPEDFAVYYCQQRINWPLTFGGGTKVEIK only. 3.4
